Ref: paper PMC6943742

Tested on: P. aeruginosa ATCC 27853
Assay type: cell-based
Details: ATCC 27853, 20 h
Non-standard residues stand in square brackets, D forms with d. Residues, ends and D or L forms follow the SMILES beside them. Gly(NCH2CH2Ph) = O=C(O)CNCCc1ccccc1; Gly(N-2-aminoethyl) = NCCNCC(=O)O; hPhe = N[C@@H](CCc1ccccc1)C(=O)O; hLys = NCCCCC[C@H](N)C(=O)O; Nphe = O=C(O)CNCc1ccccc1; Orn = NCCC[C@H](N)C(=O)O; Dab = NCC[C@H](N)C(=O)O; Nlys = NCCCCNCC(=O)O
Observable: MIC (µg/mL)
One number for each entry, in µg/mL.

These solved cases illustrate the format of a correct answer.
>  <Compound>
NCC[C@H](NC(=O)CN(CCc1ccccc1)C(=O)[C@H](CCN)NC(=O)CN(CCc1ccccc1)C(=O)[C@H](CCN)NC(=O)CN(CCc1ccccc1)C(=O)[C@H](CCN)NC(=O)CN(CCc1ccccc1)C(=O)[C@H](CCN)NC(=O)CN(CCc1ccccc1)C(=O)[C@@H](N)CCN)C(=O)N(CCc1ccccc1)CC(N)=O [Peptidomimetic 13] (H-[Dab][Gly(NCH2CH2Ph)][Dab][Gly(NCH2CH2Ph)][Dab][Gly(NCH2CH2Ph)][Dab][Gly(NCH2CH2Ph)][Dab][Gly(NCH2CH2Ph)][Dab][Gly(NCH2CH2Ph)]-NH2)

>  <Experimental system>
P. aeruginosa ATCC 27853

>  <Units text>
µg/mL

>  <Quantitative result>
2

$$$$
>  <Compound>
NCCCC[C@H](NC(=O)CN(Cc1ccccc1)C(=O)[C@H](CCCCN)NC(=O)CN(Cc1ccccc1)C(=O)[C@H](CCCCN)NC(=O)CN(Cc1ccccc1)C(=O)[C@H](CCCCN)NC(=O)CN(Cc1ccccc1)C(=O)[C@H](CCCCN)NC(=O)CN(Cc1ccccc1)C(=O)[C@@H](N)CCCCN)C(=O)N(CC(N)=O)Cc1ccccc1 [Peptidomimetic 11] (H-K[Nphe]K[Nphe]K[Nphe]K[Nphe]K[Nphe]K[Nphe]-NH2)

>  <Experimental system>
P. aeruginosa ATCC 27853

>  <Units text>
µg/mL

>  <Quantitative result>
4

$$$$
>  <Compound>
NCCC[C@H](NC(=O)CN(CCc1ccccc1)C(=O)[C@H](CCCN)NC(=O)CN(CCc1ccccc1)C(=O)[C@H](CCCN)NC(=O)CN(CCc1ccccc1)C(=O)[C@H](CCCN)NC(=O)CN(CCc1ccccc1)C(=O)[C@H](CCCN)NC(=O)CN(CCc1ccccc1)C(=O)[C@@H](N)CCCN)C(=O)N(CCc1ccccc1)CC(N)=O [Peptidomimetic 14] (H-[Orn][Gly(NCH2CH2Ph)][Orn][Gly(NCH2CH2Ph)][Orn][Gly(NCH2CH2Ph)][Orn][Gly(NCH2CH2Ph)][Orn][Gly(NCH2CH2Ph)][Orn][Gly(NCH2CH2Ph)]-NH2)

>  <Experimental system>
P. aeruginosa ATCC 27853

>  <Units text>
µg/mL

>  <Quantitative result>
8

$$$$
>  <Compound>
NCCCCNCC(=O)N[C@@H](CCc1ccccc1)C(=O)N(CCCCN)CC(=O)N[C@@H](CCc1ccccc1)C(=O)N(CCCCN)CC(=O)N[C@@H](CCc1ccccc1)C(=O)N(CCCCN)CC(=O)N[C@@H](CCc1ccccc1)C(=O)N(CCCCN)CC(=O)N[C@@H](CCc1ccccc1)C(=O)N(CCCCN)CC(=O)N[C@@H](CCc1ccccc1)C(N)=O [Peptidomimetic 7] (H-[Nlys][hPhe][Nlys][hPhe][Nlys][hPhe][Nlys][hPhe][Nlys][hPhe][Nlys][hPhe]-NH2)

>  <Experimental system>
P. aeruginosa ATCC 27853

>  <Units text>
µg/mL

>  <Quantitative result>
32

$$$$
>  <Compound>
NCCNCC(=O)N[C@@H](Cc1ccccc1)C(=O)N(CCN)CC(=O)N[C@@H](Cc1ccccc1)C(=O)N(CCN)CC(=O)N[C@@H](Cc1ccccc1)C(=O)N(CCN)CC(=O)N[C@@H](Cc1ccccc1)C(=O)N(CCN)CC(=O)N[C@@H](Cc1ccccc1)C(=O)N(CCN)CC(=O)N[C@@H](Cc1ccccc1)C(N)=O [Peptidomimetic 1] (H-[Gly(N-2-aminoethyl)]F[Gly(N-2-aminoethyl)]F[Gly(N-2-aminoethyl)]F[Gly(N-2-aminoethyl)]F[Gly(N-2-aminoethyl)]F[Gly(N-2-aminoethyl)]F-NH2)

>  <Experimental system>
P. aeruginosa ATCC 27853

>  <Units text>
µg/mL

>  <Quantitative result>
64

$$$$

Exam item: Which measured MIC value corresponds to NCCCCC[C@H](NC(=O)CN(CCc1ccccc1)C(=O)[C@H](CCCCCN)NC(=O)CN(CCc1ccccc1)C(=O)[C@H](CCCCCN)NC(=O)CN(CCc1ccccc1)C(=O)[C@H](CCCCCN)NC(=O)CN(CCc1ccccc1)C(=O)[C@H](CCCCCN)NC(=O)CN(CCc1ccccc1)C(=O)[C@@H](N)CCCCCN)C(=O)N(CCc1ccccc1)CC(N)=O [Peptidomimetic 16] (H-[hLys][Gly(NCH2CH2Ph)][hLys][Gly(NCH2CH2Ph)][hLys][Gly(NCH2CH2Ph)][hLys][Gly(NCH2CH2Ph)][hLys][Gly(NCH2CH2Ph)][hLys][Gly(NCH2CH2Ph)]-NH2) ?
Marked response: 16
